Molecular target: Cytochrome P450 2D6 (Homo sapiens) (UniProt P10635)
Sequence (P10635 whole entry, looked up): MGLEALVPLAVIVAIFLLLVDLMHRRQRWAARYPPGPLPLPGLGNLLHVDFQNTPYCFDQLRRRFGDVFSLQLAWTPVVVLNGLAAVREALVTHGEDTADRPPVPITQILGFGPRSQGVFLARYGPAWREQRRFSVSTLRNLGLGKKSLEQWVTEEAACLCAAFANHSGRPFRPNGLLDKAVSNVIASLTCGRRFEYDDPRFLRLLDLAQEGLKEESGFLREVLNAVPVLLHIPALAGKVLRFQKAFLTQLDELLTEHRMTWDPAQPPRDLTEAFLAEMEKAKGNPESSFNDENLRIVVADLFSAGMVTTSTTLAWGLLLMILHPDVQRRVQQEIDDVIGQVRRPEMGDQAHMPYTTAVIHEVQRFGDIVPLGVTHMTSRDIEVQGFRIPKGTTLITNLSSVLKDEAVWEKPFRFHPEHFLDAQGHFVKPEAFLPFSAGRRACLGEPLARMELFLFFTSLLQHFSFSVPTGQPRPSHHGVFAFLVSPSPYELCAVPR
Assay: Cytochrome panel assay with activity outcomes
Conditions: recombinant CYP, pro-luciferin dealkylation, luminescence, p450-cyp2d6; series mostly up to 57.1 µM
Out of some 16,000 compounds screened, about 2,600 (16%) were called active. About 20% were inconclusive and are not listed. Calls come from the whole dose curve; as a rule, active = well fitted curve in the direction sought with a large enough effect; inconclusive = small, poorly fitted or top-dose-only effect, or effect the other way; inactive = no such curve, though single readings can be large or run the other way. A selection follows.
Valid outcomes are listed here; reply with one: t for active, f for inactive

Examples with answers:
Cc1cc2ccccn2c1C(=O)c1nc(N2CCOCC2)ncc1Cl :: f
Cc1cc(CC(=O)O)n(C)c1C(=O)c1ccc(Cl)cc1 :: f
O=S(=O)(c1ccccc1)N1CCC2(CCN(c3ncccn3)CC2)CC1 :: f

What is the recorded call for this compound in the test? "CS(=O)(=O)N1CCC2(CCCN(c3ncccn3)C2)CC1"
t

Hi team, can someone confirm the assay call for "Cc1ccccc1NC(=O)Cn1cnc2c1c(=O)n(C)c(=O)n2C" ?
f

Assay result, entry COCCN1C(=O)C(=O)/C(=C(/O)c2cccc(OC)c2)C1c1ccco1 (stereo unspecified) — outcome?
f

----------
Target: Cytochrome P450 2D6 (Homo sapiens) (UniProt P10635)
Assay: Cytochrome panel assay with activity outcomes
Settings: recombinant CYP, pro-luciferin dealkylation, luminescence, p450-cyp2d6; series mostly up to 57.1 µM
Screen size: about 16,000 compounds; about 2,600 (16%) were called active. Inconclusive results (about 20%) are left out. Calls come from the whole dose curve; as a rule, active = well fitted curve in the direction sought with a large enough effect; inconclusive = small, poorly fitted or top-dose-only effect, or effect the other way; inactive = no such curve, though single readings can be large or run the other way. The list is a sample of the results.
Output constraint: value belongs to yes (1) (active), no (0) (inactive)

Some solved entries appear below for comparison.
CSc1nsc(SCc2ccc(Cl)cc2)n1 :: no (0)
N#CC(c1ccc(Cl)cc1)(c1ncc(C(F)(F)F)cc1Cl)N1CCOCC1 (stereo not given) :: no (0)
COc1cccc(-c2cc(NCc3ccc(OC)cc3OC)ncn2)c1 :: yes (1)

What outcome does the record of this test show for "CCOc1cc(CN2CCN(c3ccc(C(C)=O)cc3)CC2)ccc1OC" ?
no (0)

Record lookup: outcome of this test for "Cc1ccc(NC(=O)Nc2nc(-c3ccc(C)s3)cs2)cc1" ?
no (0)

Assay outcome for "C/C(=N\n1nnnc1Nc1ccccc1)c1ccc(N)cc1" : what was it?
no (0)

State the result this test recorded for "Cc1noc(C)c1-c1cc(NCc2cccnc2)ncn1" .
no (0)

Fill in: this test's call for "O=C(NNc1cccc(Cl)n1)Nc1ccccc1Cl" is ___
no (0)

----------
Molecular target: Cytochrome P450 2D6 (Homo sapiens) (UniProt P10635)
Assay: Cytochrome panel assay with activity outcomes
Conditions: recombinant CYP, pro-luciferin dealkylation, luminescence, p450-cyp2d6; series mostly up to 57.1 µM
Protocol: The P450 gene superfamily is involved in the metabolism and clearance of xenobiotics. This assay used various human CYP P450 isozymes to measure the dealkylation of various pro-luciferin substrates to luciferin. The luciferin is then measured by luminescence after the addition of a luciferase detection reagent. […] Inhibitors and some substrates limit the production of luciferin, and decrease measured luminescence. […] 8, Detection, 1 sec, ViewLux luminescent read […]
The whole screen tested about 16,000 compounds, of which about 2,600 (16%) were called active. About 20% were inconclusive and are not listed. Calls follow the shape of the dose curve; as a rule, active = well fitted curve in the direction sought with a large enough effect; inconclusive = small, poorly fitted or top-dose-only effect, or effect the other way; inactive = no such curve, though single readings can be large or run the other way. A selection follows.
Outcome (select one): label 1 for active, label 0 for inactive

COc1cccc(Sc2cc(N3CCOCC3)nc(-c3ccccc3)n2)c1 :: label 0
N#Cc1cccc(-c2nccc(-n3ccnc3)n2)c1 :: label 1

Hi team, can someone confirm the assay call for CC1=CC(=O)C=CC1(C)C(Cl)(Cl)Cl (stereo unspecified) ?
label 0

----------
Molecular target: Cytochrome P450 2D6 (Homo sapiens) (UniProt P10635)
Test: Cytochrome panel assay with activity outcomes
Settings: recombinant CYP, pro-luciferin dealkylation, luminescence, p450-cyp2d6; series mostly up to 57.1 µM
Hit rate of the full screen: of about 16,000 compounds, about 2,600 (16%) were called active. Another 20% or so got no clear call; they are omitted. Calls follow the shape of the dose curve; as a rule, active = well fitted curve in the direction sought with a large enough effect; inconclusive = small, poorly fitted or top-dose-only effect, or effect the other way; inactive = no such curve, though single readings can be large or run the other way. Not all results are given here.
Form entry, call: pick from True = active, False = inactive

CCOc1ccccc1-n1nnnc1SCC(=O)Nc1cc(C)on1 :: False
CCOC(=O)c1c(NC(=S)NC(=O)c2cnn(CC)c2)sc2c1CCC(C)C2 (stereo not given) :: False

GET /call?item= "Cn1c(-c2ccc(F)cc2)cnc1NCc1ccc(F)cc1" returns the recorded outcome of this test.
True

Outcome? "CCOC(=O)c1cc2c(C)n(-c3ccc(C)cc3)c(C)c2ccc1=O"
False

GET /call?item= "CCOc1ccccc1NC(=O)CSc1nnc(-c2cnccn2)n1C" returns the recorded outcome of this test.
True

What was the test verdict on "O=C(c1ccco1)N1CCC2(CCCN(C(c3ccccc3)c3ccccc3)C2)CC1" ?
True

----------
Target: Cytochrome P450 2D6 (Homo sapiens) (UniProt P10635)
Experiment: Cytochrome panel assay with activity outcomes
Conditions: recombinant CYP, pro-luciferin dealkylation, luminescence, p450-cyp2d6; series mostly up to 57.1 µM
The campaign covered roughly 16,000 compounds. About 2,600 (16%) were called active. Roughly 20% stayed inconclusive and do not appear here. Calls follow the shape of the dose curve; as a rule, active = well fitted curve in the direction sought with a large enough effect; inconclusive = small, poorly fitted or top-dose-only effect, or effect the other way; inactive = no such curve, though single readings can be large or run the other way. A selection follows.
Mark one answer only. Choices: active, inactive

Illustrative cases are given below, each with its answer.
OC(COCC1COc2ccccc2O1)CN1CCN(c2ccccc2F)CC1 (configuration not stated) :: active
COc1ccccc1NC(=O)CSc1nc2ccccc2cc1Cc1ccccc1 :: inactive
O=C1CCCN1CC(O)CS(=O)(=O)c1ccccc1 (configuration not stated) :: inactive
CCOC(=O)N1CCN(C(=O)c2cc(-c3ccc(F)cc3)[nH]c2C)CC1 :: inactive
Cc1cnc(CNc2ncnc3ccc(-c4ccccc4CN(C)C)cc23)cn1 :: active
CC(=O)Nc1ccc(S(=O)(=O)NCCc2ccc(F)cc2)cc1 :: active
O=C(/C=C\c1ccc(O)c(O)c1)O[C@@H](Cc1ccc(O)c(O)c1)C(=O)O :: inactive
Cc1cnc(CNc2cc(-c3ccccc3Cl)ncn2)cn1 :: inactive
Cc1ccc(C2C(=O)N(C3CCCC3)CC(=O)N2CC2COc3ccccc3O2)cc1 (configuration not stated) :: inactive
COc1ccc(-n2c(=O)c(-c3ccccc3)nc3cnc(N4CCNCC4)nc32)cc1 :: inactive

Answer briefly: the call reported for "COc1ccc(-c2nn3cnnc3s2)cc1OC" in this assay.
inactive

Returns: the outcome recorded for "COCc1cc(=O)[nH]c2cc(NC(=O)C(F)(F)F)c(C)cc12" in this assay.
inactive

Test call, this compound: "CCNCc1cc(OCC)c(OCC(=O)NCCc2ccccc2)cc1Cl"
active

Per the assay record, what outcome was assigned to CC1CCCC(C)N1CC(O)COCC1COc2ccccc2O1 (configuration not stated) ?
active

Record lookup: outcome of this test for COc1ccc(C(=O)N2CC3(CC(c4ccc(Cl)cc4)=NO3)C[C@H]2C(=O)NCC(N)=O)cc1 (some centres not stated) ?
inactive

So what was the verdict on "NC(=O)C[C@H](NC(=O)Cc1ccc(O)cc1O)C(=O)O" in this test?
inactive

What was the test verdict on "C[C@@H]1CCCN(C[C@@H](O)CN2CCCc3ccccc32)C1" ?
active

----------
Molecular target: Cytochrome P450 2D6 (Homo sapiens) (UniProt P10635)
Test: Cytochrome panel assay with activity outcomes
Conditions: recombinant CYP, pro-luciferin dealkylation, luminescence, p450-cyp2d6; series mostly up to 57.1 µM
Screen size: about 16,000 compounds; about 2,600 (16%) were called active. Another 20% or so got no clear call; they are omitted. The call rests on the fitted dose curve; in most records, active means well fitted curve in the direction sought with a large enough effect; inconclusive means small, poorly fitted or top-dose-only effect, or effect the other way; inactive means no such curve, though single readings can be large or run the other way. Only a sample is shown.
# output must be one of active, inactive

Some entries whose results are on file:
CC1CCCC(NC(=O)C2CCN(S(=O)(=O)N3CCOCC3)CC2)C1C (stereo not given) :: inactive
O=C(NCCNC[C@@H](O)COc1ccc(O)cc1)N1CCOCC1 :: inactive

# fetch the recorded call for "CCCC(=O)Nc1nnc(SCC(=O)NCc2cccs2)s1" here
inactive

Per the assay record, what outcome was assigned to Cc1ccc2c(c1)NCC(C(=O)NC1CCCCC1)O2 (stereo not given) ?
inactive

How was Clc1ccc2c(c1)C1=C(C(c3ccncc3)O2)C(c2ccc(Br)cc2)n2ncnc2N1 (stereo not given) classified in this test?
inactive

----------
Target: Cytochrome P450 2D6 (Homo sapiens)
Test: Cytochrome panel assay with activity outcomes
Settings: recombinant CYP, pro-luciferin dealkylation, luminescence, p450-cyp2d6; series mostly up to 57.1 µM
Among all 16,000 compounds or so, about 2,600 (16%) were called active. About 20% were inconclusive and are not listed. Calls come from the whole dose curve; as a rule, active = well fitted curve in the direction sought with a large enough effect; inconclusive = small, poorly fitted or top-dose-only effect, or effect the other way; inactive = no such curve, though single readings can be large or run the other way. These entries were drawn from the full list.
Just give me one of these, please: active, inactive

Example entries begin here.
O=C(c1ccc(Oc2ccc(C(F)(F)F)cn2)cc1)N1CCN(c2ccccc2)CC1 :: inactive
Cc1ccc(Nc2ccc(-n3ccnc3)nn2)cc1C :: active

Per the assay record, what outcome was assigned to "COc1ccc(/C=C2\OC(=O)c3c(OC)cccc32)cc1OC" ?
inactive

Hi, do you know how "Cc1cc(C)cc(C(=O)N(C)[C@H](Cc2ccc(-c3ccccc3)cc2)C(=O)N[C@@H](Cc2c[nH]c3ccccc23)C(=O)O)c1" came out in this test?
inactive
